A collection of molecules and their measured CC50
test system: HepG2 cells; conditions: read-out: HepG2 CC50; HepG2, 48 h, MTT
reported metric: CC50 (µM)

[[record]]
molecule = "CC(C)Cc1cc(C(=O)N/N=C/c2cc(Cl)ccc2O)[nH]n1 [D1]"
target_desc = "HepG2 cells"
reported_metric = "CC50"
measured_result = 7.9

[[record]]
molecule = "O=C(N/N=C/c1cc(Cl)ccc1O)c1cccc(Cl)c1 [K1]"
target_desc = "HepG2 cells"
reported_metric = "CC50"
measured_result = 7


* * *

test: in vitro; conditions: human, HepG2 CC50, HepG2, 48 h, MTT
A collection of molecules and their measured CC50
reported metric: CC50

[[record]]
molecule = "COc1ccc(NC(=O)c2cc(C(=O)N/N=C/c3cc(Cl)ccc3O)n(C)n2)cc1OC [H1]"
measured_result = "32 µM"

[[record]]
molecule = "Nc1c(C(=O)N/N=C/c2cc(Cl)ccc2O)nnn1-c1cccc(C(F)(F)F)c1 [E1]"
measured_result = "> 50 µM"

[[record]]
molecule = "CN1CCN(CC(=O)N/N=C/c2cc(Cl)ccc2O)CC1 [C1]"
measured_result = "> 50 µM"

[[record]]
molecule = "CC(C)Cc1cc(C(=O)N/N=C/c2cc(Cl)ccc2O)[nH]n1 [D1]"
measured_result = "< 10 µM"

[[record]]
molecule = "O=C(N/N=C/c1cc(Cl)ccc1O)c1cccc(Cl)c1 [K1]"
measured_result = "< 10 µM"

[[record]]
molecule = "Nc1c(C(=O)N/N=C/c2ccc(C(F)(F)F)cc2)nnn1-c1cccc(C(F)(F)F)c1 [E4]"
measured_result = "> 50 µM"

[[record]]
molecule = "COc1ccc(-c2cc(/C=N/NC(=O)c3cc(CC(C)C)n[nH]3)no2)cc1 [D6]"
measured_result = "> 50 µM"

[[record]]
molecule = "O=C(N/N=C/c1cc(Cl)ccc1O)c1ccncc1 [L1]"
measured_result = "~50 µM"

[[record]]
molecule = "COc1ccc(-c2cc(/C=N/NC(=O)Cn3nc(C)cc3C)no2)cc1 [B6]"
measured_result = "> 50 µM"

[[record]]
molecule = "COc1ccc(-c2cc(/C=N/NC(=O)c3nnn(-c4cccc(C(F)(F)F)c4)c3N)no2)cc1 [E6]"
measured_result = "> 50 µM"

[[record]]
molecule = "O=C(N/N=C/c1ccc(C(F)(F)F)cc1)c1cccc(Cl)c1 [K4]"
measured_result = "> 50 µM"


* * *

test: solubility in M. tuberculosis 7H9 growth medium; assay type: physicochemical; settings: M. tuberculosis 7H9 growth medium, plasma or biological fluid, kinetic from dmso stock; Mtb 7H9 growth medium
A collection of compounds and their measured solubility
reported metric: solubility (µM)

[[record]]
compound = "COc1ccc(-c2cc(/C=N/NC(=O)c3cc(CC(C)C)n[nH]3)no2)cc1 [D6]"
measured_result = 16

[[record]]
compound = "CN1CCN(CC(=O)N/N=C/c2cc(Cl)ccc2O)CC1 [C1]"
measured_result = 16

[[record]]
compound = "O=C(N/N=C/c1cc(Cl)ccc1O)c1ccncc1 [L1]"
measured_result = 16

[[record]]
compound = "O=C(N/N=C/c1cc(Cl)ccc1O)C12CC3CC(C1)CC(n1cnc(Cl)n1)(C3)C2 [I1]"
measured_result = 64

[[record]]
compound = "COc1ccc(NC(=O)c2cc(C(=O)N/N=C/c3cc(Cl)ccc3O)n(C)n2)cc1OC [H1]"
measured_result = 32

[[record]]
compound = "O=C(N/N=C/c1ccc(C(F)(F)F)cc1)c1cccc(Cl)c1 [K4]"
measured_result = 8

[[record]]
compound = "COc1ccc(-c2cc(/C=N/NC(=O)Cn3nc(C)cc3C)no2)cc1 [B6]"
measured_result = 16

